Values compiled from patent US4868181A.

# Test system: guinea pig left atria
# MEASUREMENT_PROTOCOL: Positive inotropic effect in guinea pig left atria
# MEASUREMENT_CONDITIONS: left atria paced at 2Hz, 37°, cumulative addition to maximum 10^-4; read-out: EC50 (concentration that increases DT by 50% above the control DT)
PROPERTY_NAME: EC50 (µM)

MOLECULE	RESULT_UNITS	EC50
COc1ccccc1N1CCN(CCOC(=O)C2=C(C)NC(C)=C([N+](=O)[O-])C2c2cccc(C(F)(F)F)c2)CC1 (stereo not shown)	µM	27

a: CCOC(=O)C1=C(C)NC(C)=C([N+](=O)[O-])C1c1ccccc1OCCCCN1CCN(c2ccccc2OC)CC1 (stereo not shown)
b: COc1ccccc1N1CCN(CCOC(=O)C2=C(C)NC(C)=C([N+](=O)[O-])C2c2ccccc2C(F)(F)F)CC1 (stereo not shown)
Please indicate which entry, a or b , has the lower recorded EC50 value. # reply format: chosen label
b
(b: 0.044 µM, a: 30 µM)
